Parameter: apparent KD of MS2 coat protein. Scope: all listed entries.
- Tested on: MS2 coat protein
- Assay Overview: apparent KD of MS2 coat protein; designed switch direction (-1 OFF switch, 1 ON switch): -1; higher = weaker reporter binding
- Condition Label: Eterna round: R95; input ligand: none

Query Sequence: CGUGACUGAGGAUAUCUAUGGUAUCACAUGAGGAUCACCCAUGUCCAGCGAAAGCUGGAGGGAGAAGGCAGUCACG [Fiskers Ex 5 - 32] (puzzle: Exclusion 5)
Obs Value: 0.25 µM

What reported apparent KD of MS2 coat protein corresponds to UAAAAGGAUGUCAGGAUAUGCGCUUGGGAUCAAGAGCAGAAGGGACAUGAGGAUCACCCAUGUAACGGUGCGAA [Oraninus] (puzzle: Brourd's mod of Exclusion 4) on MS2 coat protein?
0.0445 µM

Fill in the recorded apparent KD of MS2 coat protein for this sequence, with MS2 coat protein as test system: GCAUUUGAGCAGGAUAUAGCCUGAACAUAAUGGUUAGAAGGGCUCACAUGAGGAUCACCCAUGUGGUGUCCAAA [Inratete] (puzzle: Exclusion 6)
0.0156 µM

GET /values?readout=apparent KD of MS2 coat protein&system=MS2 coat protein&item= AGAAGUAGUAACCGAUCCUACAUGAGGAUCACCCAUGUAGCGGGACGUGCACGCGAAGCUCGUCAGACUACCAGAUG [salish99_TOv1_r3_024] (puzzle: Sensor v3, turn-off variant 1)
0.0286 µM

Provide the documented apparent KD of MS2 coat protein with MS2 coat protein as the system for UCAAGUAUGUAGGAUAUCGAUGUCUACGGACAUCGAGAAGGACGUACAUGAGGAUCACCCAUGUAACUUGCAUG [Exclusion 6 - B - 10:d] (puzzle: Exclusion 6)
0.108 µM

Notebook: pull reported apparent KD of MS2 coat protein for MS2 coat protein, entry GGUUGGCGAGGAUAUACAUGAGGAUCACCCAUGUGAGAAUAAAAAGUGAGGAAGAAAAGUAGAAGGCGCUGACG [Mat - Exclusion 3 - Mod of Salish D5] (puzzle: Exclusion 3)
0.0363 µM
